Assay: qHTS assay for small molecules that induce genotoxicity in human embryonic kidney cells expressing luciferase-tagged ATAD5 - cell viability (AID 651634); further: nearly all actives have a fitted effect of over 25% in size; further: potency means the concentration at half of the fitted maximal effect
Settings: HEK293T ATAD5-luc cells viability, CellTiter-Fluor, 15.5 h; series mostly up to 83.3 µM
Records with an inconclusive call do not appear. Calls of active or inactive are those of the source. The call rests on the fitted dose curve.
RESULT TYPE: Potency

{"columns": ["COMPOUND", "RESULT TYPE", "RESULT"],
 "data": [
  ["Oc1ccc([C@H]2CNCc3c2ccc(O)c3O)cc1O", "Potency", "inactive"],
  ["CCC[CH2][Sn]([CH2]CCC)([O]C(C)=O)[O]C(C)=O", "Potency", "1.23 µM (active)"],
  ["O=[N+]([O-])c1ccc(CCl)cc1", "Potency", "inactive"],
  ["O=P(Cl)(Cl)Cl", "Potency", "inactive"],
  ["c1ccc2nc(N3CCNCC3)ccc2c1", "Potency", "inactive"],
  ["[Cl-].[Cl-].[Cl-].[Yb+3]", "Potency", "inactive"],
  ["CN(C)CCc1c[nH]c2ccccc12", "Potency", "inactive"],
  ["O=Cc1ccccc1", "Potency", "inactive"],
  ["CSC(C)(C)/C=N/O", "Potency", "inactive"],
  ["O=C(NC(=O)c1ccccc1Cl)Nc1ccc(OC(F)(F)F)cc1", "Potency", "inactive"],
  ["Nc1ccc(N=Nc2ccccc2)cc1", "Potency", "41.6 µM (active)"],
  ["CCC1COC(Cn2cncn2)(c2ccc(Cl)cc2Cl)O1 (stereo not drawn)", "Potency", "inactive"],
  ["O=c1c2ccccc2c(=O)c2c1cc(Cl)c1[nH]c3c([nH]c12)c(Cl)cc1c(=O)c2ccccc2c(=O)c13", "Potency", "inactive"]
]}

----------
Test: qHTS assay for small molecule disruptors of the mitochondrial membrane potential - cell viability (AID 720634); further: nearly all actives have a fitted effect of over 20% in size
Conditions: HepG2 viability, ATP luminescence (CellTiter-Glo), 1 h; series mostly up to 83.2 µM
Results filed as inconclusive are left out. Calls of active or inactive are those of the source. Calls follow the shape of the full dose curve.
Classes used: yes = active, no = inactive

{"columns": ["SAMPLE SMILES", "CLASSIFICATION"],
 "data": [
  ["COc1nc(C)nc(NC(=O)NS(=O)(=O)c2ccccc2Cl)n1", "no"],
  ["Fc1ccc(C(OCCN2CCN(CCCc3ccccc3)CC2)c2ccc(F)cc2)cc1", "no"],
  ["Clc1cc(Cl)c(-c2cc(Cl)c(Cl)cc2Cl)cc1Cl", "no"],
  ["O=[N+]([O-])c1ccccc1-c1ccccc1", "no"],
  ["Cc1ccccc1OP(=O)(Oc1ccccc1C)Oc1ccccc1C", "yes"],
  ["N#Cc1ccc(N(CC(N)=O)CC(F)(F)F)cc1C(F)(F)F", "no"]
]}

----------
Assay: qHTS assay to identify small molecule antagonists of the glucocorticoid receptor (GR) signaling pathway - cell viability counter screen (AID 720693); further: nearly all actives have a fitted effect of over 55% in size
Conditions: GR-bla HeLa viability, CellTiter-Glo luminescence, 18 h, with 5 nM dexamethasone present; series mostly up to 58.5 µM
Results filed as inconclusive are left out. Calls of active or inactive are those of the source. Calls follow the shape of the dose curve; as a rule, active = well fitted cell-killing curve with a large enough effect in the repeat runs; inconclusive = weak or mixed curves, or effect the other way; inactive = no such curve, though single readings can be large or run the other way.
Classes used: active, inactive

{"columns": ["COMPOUND", "CLASSIFICATION"],
 "data": [
  ["S=C=Nc1ccccc1", "inactive"],
  ["CCC(OC(C)=O)C(CC(C)NC)(c1ccccc1)c1ccccc1 (configuration not stated)", "inactive"],
  ["Clc1cc(Cl)c(-c2cc(Cl)c(Cl)cc2Cl)cc1Cl", "inactive"],
  ["CC(C)[C@@H](Nc1ccc(C(F)(F)F)cc1Cl)C(=O)OC(C#N)c1cccc(Oc2ccccc2)c1 (some centres not stated)", "inactive"],
  ["C#CCO", "inactive"],
  ["C=C(C)C(=O)[O][Sn]([CH2]CCC)([CH2]CCC)[CH2]CCC", "active"],
  ["c1cc[n+]2c(c1)-c1cccc[n+]1CC2", "inactive"],
  ["C=CCOC(=O)c1ccccc1N", "inactive"],
  ["CC[C@]1(O)CC[C@H]2[C@@H]3CCC4=CCCC[C@@H]4[C@H]3CC[C@@]21C", "active"],
  ["CCc1cccc(C)c1N(C(=O)CCl)[C@@H](C)COC", "inactive"],
  ["CCCCN(CCCC)C(=S)[S-].CCCCN(CCCC)C(=S)[S-].[Ni+2]", "inactive"],
  ["Oc1cc(Cl)c(Cl)c(Cl)c1Cl", "active"]
]}
